# Tested on: HeLa Kyoto;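 further: HeLa Kyoto cells synchronized by double thymidine or nocodazole block, proteins quantified by TMT10plex mass spectrometry, three independent biological replicates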
# Procedure summary: melting temperature (median over replicates), in situ; higher = more thermally stable
# Condition notes: cell cycle stage: G1/S
Property measured: melting temperature (°C)
Please respond with the number in °C and leave the unit unwritten.

melting temperature reported for this sequence MTTTTTFKGVDPNSRNSSRVLRPPGGGSNFSLGFDEPTEQPVRKNKMASNIFGTPEENQASWAKSAGAKSSGGREDLESSGLQRRNSSEASSGDFLDLKGEGDIHENVDTDLPGSLGQSEEKPVPAAPVPSPVAPAPVPSRRNPPGGKSSLVLG [HN1] : 52.1

melting temperature reported for this sequence MASDEGKLFVGGLSFDTNEQSLEQVFSKYGQISEVVVVKDRETQRSRGFGFVTFENIDDAKDAMMAMNGKSVDGRQIRVDQAGKSSDNRSRGYRGGSAGGRGFFRGGRGRGRGFSRGGGDRGYGGNRFESRSGGYGGSRDYYSSRSQSGGYSDRSSGGSYRDSYDSYATHNE [CIRBP] : 52.8

melting temperature reported for this sequence MAAAAAAGEARRVLVYGGRGALGSRCVQAFRARNWWVASVDVVENEEASASIIVKMTDSFTEQADQVTAEVGKLLGEEKVDAILCVAGGWAGGNAKSKSLFKNCDLMWKQSIWTSTISSHLATKHLKEGGLLTLAGAKAALDGTPGMIGYGMAKGAVHQLCQSLAGKNSGMPPGAAAIAVLPVTLDTPMNRKSMPEADFSSWTPLEFLVETFHDWITGKNRPSSGSLIQVVTTEGRTELTPAYF [QDPR] : 55.5

melting temperature reported for this sequence MARFALTVVRHGETRFNKEKIIQGQGVDEPLSETGFKQAAAAGIFLNNVKFTHAFSSDLMRTKQTMHGILERSKFCKDMTVKYDSRLRERKYGVVEGKALSELRAMAKAAREECPVFTPPGGETLDQVKMRGIDFFEFLCQLILKEADQKEQFSQGSPSNCLETSLAEIFPLGKNHSSKVNSDSGIPGLAASVLVVSHGAYMRSLFDYFLTDLKCSLPATLSRSELMSVTPNTGMSLFIINFEEGREVKPTVQCICMNLQDHLNGLTETR [TIGAR] : 50.2

melting temperature reported for this sequence MDGEEQQPPHEANVEPVVPSEASEPVPRVLSGDPQNLSDVDAFNLLLEMKLKRRRQRPNLPRTVTQLVAEDGSRVYVVGTAHFSDDSKRDVVKTIREVQPDVVVVELCQYRVSMLKMDESTLLREAQELSLEKLQQAVRQNGLMSGLMQMLLLKVSAHITEQLGMAPGGEFREAFKEASKVPFCKFHLGDRPIPVTFKRAIAALSFWQKVRLAWGLCFLSDPISKDDVERCKQKDLLEQMMAEMIGEFPDLHRTIVSERDVYLTYMLRQAARRLELPRASDAEPRKCVPSVVVGVVGMGHVPGIEKNWSTDLNIQEIMTVPPPSVSGRVSRLAVKAAFFGLLGYSLYWMGRRTASLVLSLPAAQYCLQRVTEARHK [TRABD] : 52.2

melting temperature reported for this sequence MARMNRPAPVEVTYKNMRFLITHNPTNATLNKFIEELKKYGVTTIVRVCEATYDTTLVEKEGIHVLDWPFDDGAPPSNQIVDDWLSLVKIKFREEPGCCIAVHCVAGLGRAPVLVALALIEGGMKYEDAVQFIRQKRRGAFNSKQLLYLEKYRPKMRLRFKDSNGHRNNCCIQ [PTP4A1] : 52.9
